The measured values listed here are drawn from paper PMC5589893.

# Tested Target: A. fumigatus UGM (Aspergillus fumigatus, UniProt Q4W1X2)
# Construct: 8x His-tag (TEV-cleavable) (cleaved yes); made in house; host or cells: E. coli BL21 Turbo (DE3)
# Sequence (Q4W1X2 whole entry): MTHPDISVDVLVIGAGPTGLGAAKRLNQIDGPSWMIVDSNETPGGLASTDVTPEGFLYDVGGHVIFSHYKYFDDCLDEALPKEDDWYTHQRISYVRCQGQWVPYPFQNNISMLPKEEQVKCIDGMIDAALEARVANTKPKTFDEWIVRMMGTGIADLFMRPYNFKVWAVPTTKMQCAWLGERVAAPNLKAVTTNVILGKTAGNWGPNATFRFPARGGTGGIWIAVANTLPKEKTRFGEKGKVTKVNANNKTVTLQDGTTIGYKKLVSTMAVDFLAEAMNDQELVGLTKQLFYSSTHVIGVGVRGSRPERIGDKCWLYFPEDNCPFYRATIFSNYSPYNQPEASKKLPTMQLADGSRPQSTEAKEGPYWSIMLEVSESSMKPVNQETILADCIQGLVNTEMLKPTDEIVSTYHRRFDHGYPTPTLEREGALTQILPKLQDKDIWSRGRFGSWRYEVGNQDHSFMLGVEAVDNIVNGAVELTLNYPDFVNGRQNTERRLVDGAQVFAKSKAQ
# Assay Overview: biochemical
# Format: binding
# Settings: 20 µM compound, 2% DMSO, 30 nM ADP-TAMRA, normalized to negative control; read-out: Normalized anisotropy (%)
Experimental Readout: remaining activity at 20 µM (%)
Dear colleague, please return just the value in %, with no unit written.

> print(dat)
                                   compound  number
1  O=C(O)C1=CC(=C(c2ccc(O)c(C(=O)O)c2)c2ccc(O)c(C(=O)O)c2)C=CC1=O      14
2  Cc1nc(-c2ccc(OCC(C)C)c(C#N)c2)sc1C(=O)O [Febuxostat, reference compound]      39
3  N#CC(c1ccc(Cl)cc1)c1c(Cl)cc(-n2ncc(=O)[nH]c2=O)cc1Cl (stereo not shown) [Diclazuril, reference compound]      37

Query: # input compound: COc1cc(C)c(C(=O)Oc2cc(C)c(C(=O)O)c(O)c2C)c(OC)c1C ; wanted: its remaining activity at 20 µM
Result: 37

* * *

# Tested Target: A. fumigatus UGM (Aspergillus fumigatus, UniProt Q4W1X2)
# Construct: 8x His-tag (TEV-cleavable) (cleaved yes); made in house; host or cells: E. coli BL21 Turbo (DE3)
# Assay Overview: biochemical
# Assay type: biochemical
# Settings: product formation by UPLC with 200 µM compound, 20 µM UDP-Galf, 10 mM sodium dithionite; read-out: Inhibition > 50 %
# Description: The reaction was quenched with the addition of 70 µL acetonitrile. […] Samples were run at a flow rate of 0.5 mL/min for 5 min. IC50 was also determined by following NADPH oxidation at 340 nm. […] Data was analyzed using KaleidaGraph software. […] Global fitting was performed with Graphpad Prims 6 software (La Jolla, CA).
Experimental Readout: inhibition at 200 µM

Reference set, count: 3
> print(dat)
                                   compound                             tested.target  experimental.readout  result
1  O=c1c(O)c(-c2ccc(O)cc2)oc2cc(O)cc(O)c12 [Kaempferol]  A. fumigatus UGM (Aspergillus fumigatus, UniProt Q4W1X2)  inhibition at 200 µM   > 50%
2  COc1cc(C)c(C(=O)Oc2cc(C)c(C(=O)O)c(O)c2C)c(OC)c1C [Diffractaic acid]  A. fumigatus UGM (Aspergillus fumigatus, UniProt Q4W1X2)  inhibition at 200 µM   < 50%
3  N#CC(c1ccc(Cl)cc1)c1c(Cl)cc(-n2ncc(=O)[nH]c2=O)cc1Cl (stereo not shown) [Diclazuril, reference compound]  A. fumigatus UGM (Aspergillus fumigatus, UniProt Q4W1X2)  inhibition at 200 µM   > 50%

Switching to the query record.
Query: # input compound: O=C(O)C1=CC(=C(c2ccc(O)c(C(=O)O)c2)c2ccc(O)c(C(=O)O)c2)C=CC1=O [Aurin tricarboxylic acid] ; wanted: its inhibition at 200 µM
Result: < 50%

* * *

# Tested Target: A. fumigatus UGM (Aspergillus fumigatus)
# Construct: 8x His-tag (TEV-cleavable) (cleaved yes); made in house; host or cells: E. coli BL21 Turbo (DE3)
# Assay Overview: ADP-TAMRA fluorescence anisotropy binding and competition assay
# Settings: decrease in anisotropy of UGM (6.7 µM) - ADP-TAMRA (30 nM) complex; read-out: KD, competitive binding against ADP-TAMRA
Reported pKd values for a set of compounds
The quantity pKd is defined as the negative base-10 logarithm of the molar concentration.

Compound	pKd
O=c1ccn([C@@H]2O[C@H](COP(=O)(O)OP(=O)(O)O)[C@@H](O)[C@H]2O)c(=O)[nH]1 [UDP, reference compound]	5.00
NC(=O)c1ccc[n+]([C@@H]2O[C@H](COP(=O)([O-])OP(=O)(O)OC[C@H]3O[C@@H](n4cnc5c(N)ncnc54)[C@H](OP(=O)(O)O)[C@@H]3O)[C@@H](O)[C@H]2O)c1 [NADP^+, reference compound]	4.04

Query: # input compound: Nc1ncnc2c1ncn2[C@@H]1O[C@H](COP(=O)(O)OP(=O)(O)O)[C@@H](O)[C@H]1O [ADP] ; wanted: its pKd
Result: 3.91

* * *

# Tested Target: A. fumigatus UGM (Aspergillus fumigatus)
# Construct: 8x His-tag (TEV-cleavable) (cleaved yes); made in house; host or cells: E. coli BL21 Turbo (DE3)
# Assay Overview: biochemical
# Format: biochemical
# Protocol: The reaction was quenched with the addition of 70 µL acetonitrile. […] Samples were run at a flow rate of 0.5 mL/min for 5 min. IC50 was also determined by following NADPH oxidation at 340 nm. […] Data was analyzed using KaleidaGraph software. […] Global fitting was performed with Graphpad Prims 6 software (La Jolla, CA).
Experimental Readout: IC50 (µM)
Dear colleague, please return just the value in µM, with no unit written.

Query: Form: Entry = O=c1cc(-c2ccccc2)oc2cc(O)cc(O)c12 | System = A. fumigatus UGM (Aspergillus fumigatus) | IC50 = ____
Result: 24

* * *

# Tested Target: A. fumigatus UGM (Aspergillus fumigatus, UniProt Q4W1X2)
# Construct: 8x His-tag (TEV-cleavable) (cleaved yes); made in house; host or cells: E. coli BL21 Turbo (DE3)
# Assay Overview: biochemical
# Assay type: binding
# Settings: ITC, 25 °C
Reported ∆G values for a set of compounds
Dear colleague, please return just the value in kcal/mol, with no unit written.

Reference set, count: 3
Compound	Tested Target	Experimental Readout	Result Units	Number
O=C1C[C@@H](c2ccc(O)cc2)Oc2cc(O)cc(O)c21 [(2S)-naringenin]	A. fumigatus UGM (Aspergillus fumigatus, UniProt Q4W1X2)	∆G	kcal/mol	-5.7
COc1ccc([C@@H]2CC(=O)c3c(O)cc(O)cc3O2)cc1O [(2S)-hesperetin]	A. fumigatus UGM (Aspergillus fumigatus, UniProt Q4W1X2)	∆G	kcal/mol	-6.1
O=c1ccn([C@@H]2O[C@H](COP(=O)(O)OP(=O)(O)O)[C@@H](O)[C@H]2O)c(=O)[nH]1 [UDP, reference compound]	A. fumigatus UGM (Aspergillus fumigatus, UniProt Q4W1X2)	∆G	kcal/mol	-7.1

Switching to the query record.
Query: # input compound: NC(=O)c1ccc[n+]([C@@H]2O[C@H](COP(=O)([O-])OP(=O)(O)OC[C@H]3O[C@@H](n4cnc5c(N)ncnc54)[C@H](OP(=O)(O)O)[C@@H]3O)[C@@H](O)[C@H]2O)c1 [NADP^+, reference compound] ; wanted: its ∆G
Result: -4.6

* * *

# Tested Target: A. fumigatus UGM (Aspergillus fumigatus, UniProt Q4W1X2)
# Construct: 8x His-tag (TEV-cleavable) (cleaved yes); made in house; host or cells: E. coli BL21 Turbo (DE3)
# Assay Overview: biochemical
# Format: biochemical
# Settings: inhibition at 200 µM vs 20 µM compound, UPLC
Experimental Readout: Concentration effect

Reference set, count: 5
Compound	Concentration effect
O=c1c(O)c(-c2ccc(O)cc2)oc2cc(O)cc(O)c12	+
COc1cc(C)c(C(=O)Oc2cc(C)c(C(=O)O)c(O)c2C)c(OC)c1C	-
Cc1nc(-c2ccc(OCC(C)C)c(C#N)c2)sc1C(=O)O [Febuxostat, reference compound]	+
O=c1cc(-c2ccccc2)oc2cc(O)cc(O)c12	+
Cc1ccc(C(=O)Nc2ccc(S(=O)(=O)O)c3cc(S(=O)(=O)O)cc(S(=O)(=O)O)c23)cc1NC(=O)c1cccc(NC(=O)Nc2cccc(C(=O)Nc3cc(C(=O)Nc4ccc(S(=O)(=O)O)c5cc(S(=O)(=O)O)cc(S(=O)(=O)O)c45)ccc3C)c2)c1 [Suramin hexasodium, reference compound]	-

Query: # input compound: O=C(O)c1cc(/N=N/c2ccc(O)c(C(=O)O)c2)ccc1O [Olsalazine sodium, reference compound] ; wanted: its Concentration effect
Result: -

Query: Same again, this time with O=C(O)C1=CC(=C(c2ccc(O)c(C(=O)O)c2)c2ccc(O)c(C(=O)O)c2)C=CC1=O
Result: -

Query: Same again, this time with CS(=O)(=O)Nc1ccc([N+](=O)[O-])cc1Oc1ccccc1 [Nimesulide, reference compound]
Result: -

* * *

Reported remaining activity at 20 µM values for a set of compounds
# Tested Target: A. fumigatus UGM (Aspergillus fumigatus)
# Construct: 8x His-tag (TEV-cleavable) (cleaved yes); made in house; host or cells: E. coli BL21 Turbo (DE3)
# Assay Overview: biochemical
# Type: binding
# Settings: 20 µM compound, 2% DMSO, 30 nM ADP-TAMRA, normalized to negative control; read-out: Normalized anisotropy (%)
Dear colleague, please return just the value in %, with no unit written.

> print(dat)
                                smiles.text                             tested.target  number
1  O=c1oc2c(O)c(O)cc3c(=O)oc4c(O)c(O)cc1c4c23  A. fumigatus UGM (Aspergillus fumigatus)      50

Query: # input compound: O=c1c(O)c(-c2ccc(O)cc2)oc2cc(O)cc(O)c12 ; wanted: its remaining activity at 20 µM
Result: 38

Query: Same again, this time with O=c1cc(-c2ccccc2)oc2cc(O)cc(O)c12
Result: 48

Query: Same again, this time with O=C1C[C@@H](c2ccc(O)cc2)Oc2cc(O)cc(O)c21
Result: 23

Query: Same again, this time with COc1ccc([C@@H]2CC(=O)c3c(O)cc(O)cc3O2)cc1O
Result: 17
